This listing pairs compounds with measured pIC50.
# TEST SYSTEM: HLA-B4403 (Homo sapiens, UniProt P01889, A223V/A65T/A93T/A95T/D201E/D98Y/E176V/E187L/E204Q/E69K/G107R/H137Y/K202T/L105A/L119I/N104T/N87E/Q56L/Q94N/R106L/R155S/R180L/S101N/S121R/S35A/S48T/T118I/V36M/W191S/Y140D/Y91S)
# RUN DESCRIPTION: Competitive peptide binding assay, CIR-B4403
# SETTINGS: HMy2.CIR-B4403 cells, reference Cy5-CYMEAVAL, class from inhibition at 5 and 15 μM, flow cytometry MFI; read-out: Binding affinity with HLA-B4403
pIC50: −log10 of the molar value. Peptide text beside a SMILES is read from it.

COMPOUND	pIC50
CC[C@H](C)[C@H](N)C(=O)N[C@@H](C)C(=O)N[C@@H](CCSC)C(=O)N[C@@H](C)C(=O)N[C@@H](CS)C(=O)N[C@@H](CC(C)C)C(=O)N[C@H](C(=O)NCC(=O)N[C@@H](CC(C)C)C(=O)O)C(C)C [Epitope Y253] (H-IAMACLVGL-OH; N-terminus and C-terminus assumed)	4.82 to 5.30

// below: pIC50 requested for another compound
Exam item: What measured pIC50 goes with CC[C@H](C)[C@H](NC(=O)[C@H](C)NC(=O)[C@H](C)NC(=O)[C@H](CC(N)=O)NC(=O)[C@H](CC(N)=O)NC(=O)[C@H](C)NC(=O)[C@@H]1CCCN1C(=O)[C@@H](N)CC(N)=O)C(=O)N[C@H](C(=O)O)C(C)C [Epitope Y18] (H-NPANNAAIV-OH; N-terminus and C-terminus assumed) ?
Marked response: < 4.82

====

This listing pairs compounds with measured IC50.
# TEST SYSTEM: HLA-B1302 (Homo sapiens, UniProt P01889, A65T/A93T/A95T/D138N/D201E/D98Y/E176V/E204Q/E69M/E70A/G107R/K202T/L105A/L119W/N104T/N87E/Q94N/R106L/R155S/R169L/R180L/S101N/S121T/S35A/S48T/V127L/V36M/Y140L/Y91S)
# RUN DESCRIPTION: Competitive peptide binding assay, CIR-B1302
# SETTINGS: HMy2.CIR-B1302 cells, reference Cy5-MMWYWGPSL, class from inhibition at 5 and 15 μM, flow cytometry MFI; read-out: Binding affinity with HLA-B1302
Peptide text beside a SMILES is read from it.

Below, each entry is followed by its recorded IC50 result.
COMPOUND	IC50
CC[C@H](C)[C@H](NC(=O)[C@@H](NC(=O)[C@H](CCC(=O)O)NC(=O)[C@H](CCC(=O)O)NC(=O)[C@@H](N)Cc1c[nH]cn1)[C@@H](C)O)C(=O)N[C@@H](Cc1ccc(O)cc1)C(=O)N[C@@H](CC(N)=O)C(=O)N[C@@H](CC(C)C)C(=O)N[C@@H](CC(C)C)C(=O)O [Epitope Y199] (H-HEETIYNLL-OH; N-terminus and C-terminus assumed)	5 to 15 µM
C[C@@H](O)[C@H](NC(=O)CNC(=O)[C@H](CCC(N)=O)NC(=O)[C@@H](N)CCCNC(=N)N)C(=O)N[C@@H](CC(=O)O)C(=O)N[C@@H](Cc1ccc(O)cc1)C(=O)N[C@@H](CCCCN)C(=O)N[C@@H](Cc1c[nH]cn1)C(=O)N[C@@H](Cc1c[nH]c2ccccc12)C(=O)O [Epitope Y222] (H-RQGTDYKHW-OH; N-terminus and C-terminus assumed)	> 15 µM

Exam item: What measured IC50 goes with CC[C@H](C)[C@H](NC(=O)[C@@H](NC(=O)CNC(=O)[C@H](CC(N)=O)NC(=O)[C@H](CO)NC(=O)[C@H](CC(=O)O)NC(=O)[C@H](C)N)[C@@H](C)O)C(=O)N[C@H](C(=O)N[C@H](C(=O)O)C(C)C)[C@@H](C)O [Epitope Y216] (H-ADSNGTITV-OH; N-terminus and C-terminus assumed) ?
Marked response: > 15 µM
